- target.system: 5-hydroxytryptamine receptor 2B (Homo sapiens, UniProt P41595); further: assay procedure not described here
- Sequence (P41595 whole entry): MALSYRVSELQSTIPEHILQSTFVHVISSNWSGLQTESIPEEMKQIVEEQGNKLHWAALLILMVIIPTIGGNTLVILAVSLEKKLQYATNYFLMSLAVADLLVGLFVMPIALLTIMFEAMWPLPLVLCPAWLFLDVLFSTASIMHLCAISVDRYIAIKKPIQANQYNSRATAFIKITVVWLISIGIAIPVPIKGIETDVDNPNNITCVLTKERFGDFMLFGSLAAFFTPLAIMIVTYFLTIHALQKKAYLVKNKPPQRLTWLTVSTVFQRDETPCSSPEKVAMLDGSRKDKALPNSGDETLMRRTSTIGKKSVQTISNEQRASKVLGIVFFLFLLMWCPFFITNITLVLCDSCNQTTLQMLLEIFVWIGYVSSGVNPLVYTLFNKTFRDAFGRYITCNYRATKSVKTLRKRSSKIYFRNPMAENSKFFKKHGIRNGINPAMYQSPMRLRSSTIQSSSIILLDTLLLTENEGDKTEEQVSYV
- Format: functional, cell-based
Can you tell me AC50 for the items I'm about to list?

The examples below pair each entry with its known result.
compound="O=C(Nc1ccccc1)OCC(CN1CCCCC1)OC(=O)Nc1ccccc1 (stereo not drawn) [DIPERODON]" reported_result="15 µM"
compound="NS(=O)(=O)c1cc(Cl)c(Cl)c(S(N)(=O)=O)c1 [DICHLORPHENAMIDE]" reported_result="> 10 µM"
compound="Nc1ncnc2c1ncn2[C@@H]1O[C@H](COP(=O)(O)O)[C@@H](O)[C@H]1O [ADENOSINE PHOSPHATE]" reported_result="> 30 µM"
compound="COC(=O)[C@H]1[C@@H](OC(=O)c2ccccc2)C[C@@H]2CC[C@H]1N2C [COCAINE]" reported_result="> 30 µM"
compound="CN1CCC2=C(C1)C(c1ccccc1)c1ccccc12 (stereo not drawn) [PHENINDAMINE]" reported_result="> 10 µM"
compound="NS(=O)(=O)c1cc2c(cc1Cl)NC(CC1CCCC1)NS2(=O)=O (stereo not drawn) [CYCLOPENTHIAZIDE]" reported_result="> 30 µM"
compound="CC(=O)OCC(=O)[C@@]12OC3(CCCC3)O[C@@H]1C[C@H]1[C@@H]3CCC4=CC(=O)C=C[C@]4(C)[C@@]3(F)[C@@H](O)C[C@@]12C [AMCINONIDE]" reported_result="> 10 µM"

// below: AC50 requested for another compound
Prompt line: Quick check: AC50 of O=C1NCCN1CCN1CCC(c2cn(-c3ccc(F)cc3)c3ccc(Cl)cc23)CC1 [SERTINDOLE] ?
Response line: 0.6 µM

----------
- target.system: Alpha-2C adrenergic receptor (Homo sapiens); further: assay procedure not described here
- Sequence (P18825 whole entry): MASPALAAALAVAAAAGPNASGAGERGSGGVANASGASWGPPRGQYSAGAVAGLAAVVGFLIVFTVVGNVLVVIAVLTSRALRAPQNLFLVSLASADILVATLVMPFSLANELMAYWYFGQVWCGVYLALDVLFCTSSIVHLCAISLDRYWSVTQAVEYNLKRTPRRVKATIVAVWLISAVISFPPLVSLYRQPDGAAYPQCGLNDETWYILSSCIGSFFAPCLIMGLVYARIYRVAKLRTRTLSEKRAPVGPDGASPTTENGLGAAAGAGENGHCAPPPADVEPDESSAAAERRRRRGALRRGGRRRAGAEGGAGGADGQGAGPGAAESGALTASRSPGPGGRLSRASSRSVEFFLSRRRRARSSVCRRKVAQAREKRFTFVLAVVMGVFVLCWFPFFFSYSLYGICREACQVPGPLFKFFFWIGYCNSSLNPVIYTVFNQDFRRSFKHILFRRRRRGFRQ
- Format: functional
measured.parameter: AC50

The examples below pair each entry with its known result.
molecule="O=C(C[S+]([O-])C(c1ccccc1)c1ccccc1)NO (stereo not drawn)" reported_result="> 30 µM"
molecule="CN[C@@H]1[C@H](O)[C@H](NC)[C@H]2O[C@@]3(O)C(=O)C[C@@H](C)O[C@H]3O[C@@H]2[C@H]1O [SPECTINOMYCIN]" reported_result="> 10 µM"

// for each molecule below, give its AC50
1. CCCS(=O)(=O)Nc1ccc(F)c(C(=O)c2c[nH]c3ncc(-c4ccc(Cl)cc4)cc23)c1F [VEMURAFENIB]
2. Cc1c(O)c(=O)ccn1C [DEFERIPRONE]
3. COC(=O)N[C@H](C(=O)N[C@@H](Cc1ccccc1)[C@@H](O)CN(Cc1ccc(-c2ccccn2)cc1)NC(=O)[C@@H](NC(=O)OC)C(C)(C)C)C(C)(C)C [ATAZANAVIR]

Response line:
1: > 30 µM; 2: > 30 µM; 3: > 10 µM
